B1: 2K2A (parent)
chain: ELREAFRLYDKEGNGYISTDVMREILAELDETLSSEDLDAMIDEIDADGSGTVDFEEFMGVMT

Variants of: B1
TEST_DETAILS: folding stability dG (cDNA display proteolysis); higher = more stable
RUN_PARAMETERS: PBS, room temperature
PROPERTY: folding stability dG
# answer = value followed by unit

Solved entries (count: 3):
{"MUTATION_DESCRIPTOR": "D54T", "READING": "2.36 kcal/mol"}
{"MUTATION_DESCRIPTOR": "E56N", "READING": "1.86 kcal/mol"}
{"MUTATION_DESCRIPTOR": "S34M", "READING": "1.27 kcal/mol"}

I need folding stability dG for every entry listed below, if you could help.
1. L29N
2. E4P
3. A27L
4. L38D
5. A47V

result:
1: 1.34 kcal/mol; 2: 0.889 kcal/mol; 3: 2.06 kcal/mol; 4: -0.787 kcal/mol; 5: 1.91 kcal/mol

I need folding stability dG for every entry listed below, if you could help.
1. V21W
2. D46E

result:
1: 1.09 kcal/mol; 2: 0.581 kcal/mol
